# Test system: Human immunodeficiency virus 1
# assayName: Antiviral activity against HIV-1 harboring K103N mutant infected in human MT4 cells assessed as reduction in virus induced cytotoxicity incubated for 5 to 7 days by MTT assay
# Format: functional, organism-based
# statedConditions: Human immunodeficiency virus 1, MT4
Measured EC50 by item
Write down the numeric answer in nM and omit the unit.

Query EC50 for Cc1cc(C)cc(S(=O)(=O)c2c(C(=O)NC3CC4(C3)CN(CC(N)=O)C4)[nH]c3ccc(Cl)cc23)c1
140

Query EC50 for Cc1cc(C)cc(S(=O)(=O)c2c(C(=O)NC3CC4(CCN(Cc5n[nH]c(=O)n5C)CC4)C3)[nH]c3ccc(Cl)cc23)c1
570

Query EC50 for Cc1cc(C)cc(S(=O)(=O)c2c(C(=O)NC3CC4(C3)CN(Cc3n[nH]c(=O)n3C)C4)[nH]c3ccc(Cl)cc23)c1
56

Query EC50 for Cc1cc(C)cc(S(=O)(=O)c2c(C(=O)NC3CC4(CCN(CC(N)=O)CC4)C3)[nH]c3ccc(Cl)cc23)c1
150

Query EC50 for Cc1ccnc2c1NC(=O)c1cccnc1N2C1CC1
3550

Query EC50 for Cc1cc(C)cc(S(=O)(=O)c2c(C(=O)NC3CC4(CCN(S(C)(=O)=O)C4)C3)[nH]c3ccc(Cl)cc23)c1 (stereo not drawn)
330

Query EC50 for Cc1cc(C)cc(S(=O)(=O)c2c(C(=O)NC3CC4(CCN(Cc5n[nH]c(=O)n5C)C4)C3)[nH]c3ccc(Cl)cc23)c1 (stereo not drawn)
140

Query EC50 for Cc1cc(C)cc(S(=O)(=O)c2c(C(=O)NC3CC4(C3)CN(S(C)(=O)=O)C4)[nH]c3ccc(Cl)cc23)c1
210

---

# targetOrSystem: Human immunodeficiency virus type 1 reverse transcriptase (Human immunodeficiency virus 1, UniProt Q72547)
endpointName: pIC50
Lab note: report pIC50 as minus log10 of the concentration in molar units, number only.

Use these answered entries as a reference point.
Cc1cc(C)cc(S(=O)(=O)c2c(C(=O)NC3CC4(C3)CN(S(C)(=O)=O)C4)[nH]c3ccc(Cl)cc23)c1 :: 6.92
Cc1cc(C)cc(S(=O)(=O)c2c(C(=O)NC3CC4(CCN(CC(N)=O)C4)C3)[nH]c3ccc(Cl)cc23)c1 (centres undefined) :: 6.89
Cc1cc(C)cc(S(=O)(=O)c2c(C(N)=O)[nH]c3ccc(Cl)cc23)c1 :: 7.82

Could you now look at the following compound, please?
Query pIC50 for Cc1cc(C)cc(S(=O)(=O)c2c(C(=O)NC3CC4(C3)CN(Cc3n[nH]c(=O)n3C)C4)[nH]c3ccc(Cl)cc23)c1
6.77

---

# assayName: Selectivity index, ratio of CC50 for cytotoxicity against human MT4 cells to EC50 for antiviral activity against wildtype HIV-1 3B infected in human MT4 cells
# Format: toxicity, cell-based
# statedConditions: read-out: Ratio CC50/EC50
Values of selectivity ratio strictly less than 700 map to MET, and values of at least 700 map to NOT MET.

Use the examples below as a reference point.
Cc1cc(C)cc(S(=O)(=O)c2c(C(=O)NC3CC4(C3)CN(C(=O)OC(C)(C)C)C4)[nH]c3ccc(Cl)cc23)c1 :: NOT MET
Cc1cc(C)cc(S(=O)(=O)c2c(C(=O)NC3CC4(C3)CN(Cc3n[nH]c(=O)n3C)C4)[nH]c3ccc(Cl)cc23)c1 :: NOT MET
Cc1cc(C)cc(S(=O)(=O)c2c(C(=O)NC3CC4(CCN(CC(N)=O)C4)C3)[nH]c3ccc(Cl)cc23)c1 (stereo not drawn) :: MET
Cc1cc(C)cc(S(=O)(=O)c2c(C(=O)NC3CC4(CCN(CC(N)=O)CC4)C3)[nH]c3ccc(Cl)cc23)c1 :: MET
Cc1cc(C)cc(S(=O)(=O)c2c(C(=O)NC3CC4(CNC4)C3)[nH]c3ccc(Cl)cc23)c1 :: MET
Cc1cc(C)cc(S(=O)(=O)c2c(C(=O)NC3CC4(CCN(Cc5n[nH]c(=O)n5C)C4)C3)[nH]c3ccc(Cl)cc23)c1 (stereo not drawn) :: NOT MET
Cc1cc(C#N)cc(C)c1Oc1nc(Nc2ccc(C#N)cc2)nc(N)c1Br :: NOT MET
Cc1cc(C)cc(S(=O)(=O)c2c(C(=O)NC3CC4(CCN(C(=O)OC(C)(C)C)C4)C3)[nH]c3ccc(Cl)cc23)c1 (stereo not drawn) :: NOT MET

Dear colleague, could you confirm whether selectivity ratio of Cc1cc(C)cc(S(=O)(=O)c2c(C(=O)NC3CC4(C3)CN(CC(N)=O)C4)[nH]c3ccc(Cl)cc23)c1 falls below 700? Thanks.
MET

Dear colleague, could you confirm whether selectivity ratio of Cc1cc(C)cc(S(=O)(=O)c2c(C(=O)NC3CC4(CCNC4)C3)[nH]c3ccc(Cl)cc23)c1 (stereo not drawn) falls below 700? Thanks.
MET

---

# System: Human immunodeficiency virus 1
# assayName: Antiviral activity against HIV-1 RES056 infected in human MT4 cells assessed as reduction in virus induced cytotoxicity incubated for 5 to 7 days by MTT assay
# Format: functional, organism-based
# statedConditions: Human immunodeficiency virus 1, RES056, MT4
pEC50: −log10 of the molar value.
Assign class by pEC50: not lower than 6 means YES; lower than 6 means NO.

Use the examples below as a reference point.
Cc1cc(C)cc(S(=O)(=O)c2c(C(=O)NC3CC4(CCN(CC(N)=O)C4)C3)[nH]c3ccc(Cl)cc23)c1 (stereo not given) :: NO
Cc1cc(C)cc(S(=O)(=O)c2c(C(=O)NC3CC4(C3)CN(S(C)(=O)=O)C4)[nH]c3ccc(Cl)cc23)c1 :: NO
Cc1cc(C#N)cc(C)c1Oc1nc(Nc2ccc(C#N)cc2)nc(N)c1Br :: YES
Cc1cc(C)cc(S(=O)(=O)c2c(C(N)=O)[nH]c3ccc(Cl)cc23)c1 :: NO
Cc1cc(C)cc(S(=O)(=O)c2c(C(=O)NC3CC4(CCN(S(C)(=O)=O)CC4)C3)[nH]c3ccc(Cl)cc23)c1 :: NO

Identify whether the reported pEC50 of the following compound is 6 or greater: Cc1cc(C)cc(S(=O)(=O)c2c(C(=O)NC3CC4(CCN(S(C)(=O)=O)C4)C3)[nH]c3ccc(Cl)cc23)c1 (stereo not given)
NO

Identify whether the reported pEC50 of the following compound is 6 or greater: Cc1ccnc2c1NC(=O)c1cccnc1N2C1CC1
NO

Identify whether the reported pEC50 of the following compound is 6 or greater: Cc1cc(C)cc(S(=O)(=O)c2c(C(=O)NC3CC4(CCN(Cc5n[nH]c(=O)n5C)CC4)C3)[nH]c3ccc(Cl)cc23)c1
NO

Identify whether the reported pEC50 of the following compound is 6 or greater: Cc1cc(C)cc(S(=O)(=O)c2c(C(=O)NC3CC4(C3)CN(Cc3n[nH]c(=O)n3C)C4)[nH]c3ccc(Cl)cc23)c1
NO

Identify whether the reported pEC50 of the following compound is 6 or greater: Cc1cn([C@H]2C[C@H](N=[N+]=[N-])[C@@H](CO)O2)c(=O)[nH]c1=O
YES

---

Measured EC50 by item
# Test system: Human immunodeficiency virus 1
# assayName: Antiviral activity against HIV-1 harboring Y181C mutant infected in human MT4 cells assessed as reduction in virus induced cytotoxicity incubated for 5 to 7 days by MTT assay
# Assay type: functional, organism-based
# statedConditions: Human immunodeficiency virus 1, MT4
Write down the numeric answer in nM and omit the unit.

Cc1cc(C)cc(S(=O)(=O)c2c(C(=O)NC3CC4(CCN(CC(N)=O)C4)C3)[nH]c3ccc(Cl)cc23)c1 (stereo not drawn) :: 420
Cc1cn([C@H]2C[C@H](N=[N+]=[N-])[C@@H](CO)O2)c(=O)[nH]c1=O :: 5
Cc1cc(C)cc(S(=O)(=O)c2c(C(=O)NC3CC4(CCN(CC(N)=O)CC4)C3)[nH]c3ccc(Cl)cc23)c1 :: 850

Query EC50 for Cc1cc(C)cc(S(=O)(=O)c2c(C(=O)NC3CC4(CCN(S(C)(=O)=O)C4)C3)[nH]c3ccc(Cl)cc23)c1 (stereo not drawn)
330

Query EC50 for Cc1cc(C)cc(S(=O)(=O)c2c(C(=O)NC3CC4(CCN(S(C)(=O)=O)CC4)C3)[nH]c3ccc(Cl)cc23)c1
970

Query EC50 for Cc1cc(C)cc(S(=O)(=O)c2c(C(=O)NC3CC4(C3)CN(Cc3n[nH]c(=O)n3C)C4)[nH]c3ccc(Cl)cc23)c1
250

Query EC50 for Cc1cc(C)cc(S(=O)(=O)c2c(C(=O)NC3CC4(CCN(Cc5n[nH]c(=O)n5C)C4)C3)[nH]c3ccc(Cl)cc23)c1 (stereo not drawn)
210

Query EC50 for Cc1cc(C)cc(S(=O)(=O)c2c(C(=O)NC3CC4(C3)CN(S(C)(=O)=O)C4)[nH]c3ccc(Cl)cc23)c1
470
